target-or-test-system: p110α/p85α (PI3Kα) (Homo sapiens, UniProt P42336)
Construct: purchased BPS Bioscience or Millipore 40620 (BPS Bioscience) or 14-602 (Millipore)
Sequence (P42336 whole entry): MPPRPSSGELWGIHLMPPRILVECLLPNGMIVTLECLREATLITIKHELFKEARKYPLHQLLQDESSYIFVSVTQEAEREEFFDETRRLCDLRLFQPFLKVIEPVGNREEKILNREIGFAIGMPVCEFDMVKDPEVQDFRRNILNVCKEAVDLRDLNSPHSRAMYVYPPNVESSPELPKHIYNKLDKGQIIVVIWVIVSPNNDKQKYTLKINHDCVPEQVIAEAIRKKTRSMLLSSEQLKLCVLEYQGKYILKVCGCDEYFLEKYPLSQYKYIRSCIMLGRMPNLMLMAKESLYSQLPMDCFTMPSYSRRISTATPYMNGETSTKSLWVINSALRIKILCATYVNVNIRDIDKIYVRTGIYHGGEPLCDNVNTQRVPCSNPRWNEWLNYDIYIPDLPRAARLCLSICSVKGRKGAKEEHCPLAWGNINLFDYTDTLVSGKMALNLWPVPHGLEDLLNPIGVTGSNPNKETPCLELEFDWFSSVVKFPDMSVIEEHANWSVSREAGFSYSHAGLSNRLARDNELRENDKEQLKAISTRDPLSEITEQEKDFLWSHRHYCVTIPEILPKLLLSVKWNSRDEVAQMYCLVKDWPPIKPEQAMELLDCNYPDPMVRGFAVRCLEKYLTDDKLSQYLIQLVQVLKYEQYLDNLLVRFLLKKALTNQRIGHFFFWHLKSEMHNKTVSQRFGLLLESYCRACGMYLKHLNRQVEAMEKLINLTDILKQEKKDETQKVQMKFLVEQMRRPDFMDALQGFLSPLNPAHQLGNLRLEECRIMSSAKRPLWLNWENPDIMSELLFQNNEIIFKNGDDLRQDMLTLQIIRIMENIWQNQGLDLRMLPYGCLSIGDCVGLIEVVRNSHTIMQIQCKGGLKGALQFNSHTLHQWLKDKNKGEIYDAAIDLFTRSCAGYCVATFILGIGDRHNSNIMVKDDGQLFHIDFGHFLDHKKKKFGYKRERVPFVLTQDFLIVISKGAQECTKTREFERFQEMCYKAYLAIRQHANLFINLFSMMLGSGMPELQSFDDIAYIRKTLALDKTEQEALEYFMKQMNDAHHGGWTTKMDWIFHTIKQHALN
Sequence (P27986 whole entry partner): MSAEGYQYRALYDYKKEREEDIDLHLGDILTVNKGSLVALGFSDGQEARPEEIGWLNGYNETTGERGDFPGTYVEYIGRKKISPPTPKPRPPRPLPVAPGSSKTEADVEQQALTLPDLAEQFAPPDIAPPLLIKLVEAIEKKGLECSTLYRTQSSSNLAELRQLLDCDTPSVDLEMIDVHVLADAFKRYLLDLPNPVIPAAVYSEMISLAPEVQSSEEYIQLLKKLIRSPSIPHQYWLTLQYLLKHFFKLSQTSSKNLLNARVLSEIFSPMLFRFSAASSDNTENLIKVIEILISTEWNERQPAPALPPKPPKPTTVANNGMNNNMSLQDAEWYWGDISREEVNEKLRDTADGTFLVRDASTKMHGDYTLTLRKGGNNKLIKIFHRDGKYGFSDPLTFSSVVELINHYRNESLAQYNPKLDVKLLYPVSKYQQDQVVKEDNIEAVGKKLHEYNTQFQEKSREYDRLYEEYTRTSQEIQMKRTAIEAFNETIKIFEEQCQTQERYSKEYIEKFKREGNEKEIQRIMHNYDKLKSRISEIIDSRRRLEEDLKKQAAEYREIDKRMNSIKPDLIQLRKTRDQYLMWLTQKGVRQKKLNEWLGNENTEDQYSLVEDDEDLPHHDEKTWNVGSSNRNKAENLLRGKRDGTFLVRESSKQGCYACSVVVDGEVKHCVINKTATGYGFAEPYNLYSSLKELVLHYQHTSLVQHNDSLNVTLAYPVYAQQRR
assay-details: HTRF assay, p110α/p85α
Format: biochemical
study-conditions: read-out: PI3Kα-HTRF-IC50 nM Inhibition Designation
Provide the recorded IC50 for the entries that follow.

So what's the measured IC50 for this one? CN(Cc1cc2nc(-c3cccc(O)c3)nc(N3CCOCC3)c2s1)C(=O)[C@H]1CCC(=O)O1 [XXII-7]
100 to 1000 nM

So what's the measured IC50 for this one? CC(=O)CC(=O)N1CCN(Cc2cc3nc(-c4cccc5[nH]ncc45)nc(N4CCOCC4)c3s2)CC1 [XXII-14]
10 to 100 nM

So what's the measured IC50 for this one? CC(C)Oc1c(N2CCN(Cc3cc4nc(-c5cccc6[nH]ncc56)nc(N5CCOCC5)c4s3)CC2)c(=O)c1=O [XXII-15]
10 to 100 nM

So what's the measured IC50 for this one? O=C1CC[C@@H](C(=O)N2CC=C(c3cc4nc(-c5cccc(O)c5)nc(N5CCOCC5)c4s3)CC2)O1 [XXII-1]
10 to 100 nM

So what's the measured IC50 for this one? CC1(C)Cc2nc(N3CCOc4ccc(-c5ccc(C(=O)N6C[C@@H]7C[C@H]6C(=O)O7)cc5)cc43)sc2C(=O)N1 [XXIII-8]
100 to 1000 nM

So what's the measured IC50 for this one? CC1(C)Cc2nc(N3CCOc4ccc(C(=O)N5C[C@@H]6C[C@H]5C(=O)O6)cc43)sc2C(=O)N1 [XXIII-4]
100 to 1000 nM

So what's the measured IC50 for this one? CC1(C)Cc2nc(N3CCOc4ccc(NC(=O)[C@H]5CCC(=O)O5)cc43)sc2C(=O)N1 [XXIII-2]
100 to 1000 nM

Entry source: patent US11542492B2
